Measured Target: F508del (Homo sapiens, UniProt P13569, DEL508-508)
Construct: expressed in transfected cells
Sequence (P13569 with tags, fused parts or gaps DEL508-508): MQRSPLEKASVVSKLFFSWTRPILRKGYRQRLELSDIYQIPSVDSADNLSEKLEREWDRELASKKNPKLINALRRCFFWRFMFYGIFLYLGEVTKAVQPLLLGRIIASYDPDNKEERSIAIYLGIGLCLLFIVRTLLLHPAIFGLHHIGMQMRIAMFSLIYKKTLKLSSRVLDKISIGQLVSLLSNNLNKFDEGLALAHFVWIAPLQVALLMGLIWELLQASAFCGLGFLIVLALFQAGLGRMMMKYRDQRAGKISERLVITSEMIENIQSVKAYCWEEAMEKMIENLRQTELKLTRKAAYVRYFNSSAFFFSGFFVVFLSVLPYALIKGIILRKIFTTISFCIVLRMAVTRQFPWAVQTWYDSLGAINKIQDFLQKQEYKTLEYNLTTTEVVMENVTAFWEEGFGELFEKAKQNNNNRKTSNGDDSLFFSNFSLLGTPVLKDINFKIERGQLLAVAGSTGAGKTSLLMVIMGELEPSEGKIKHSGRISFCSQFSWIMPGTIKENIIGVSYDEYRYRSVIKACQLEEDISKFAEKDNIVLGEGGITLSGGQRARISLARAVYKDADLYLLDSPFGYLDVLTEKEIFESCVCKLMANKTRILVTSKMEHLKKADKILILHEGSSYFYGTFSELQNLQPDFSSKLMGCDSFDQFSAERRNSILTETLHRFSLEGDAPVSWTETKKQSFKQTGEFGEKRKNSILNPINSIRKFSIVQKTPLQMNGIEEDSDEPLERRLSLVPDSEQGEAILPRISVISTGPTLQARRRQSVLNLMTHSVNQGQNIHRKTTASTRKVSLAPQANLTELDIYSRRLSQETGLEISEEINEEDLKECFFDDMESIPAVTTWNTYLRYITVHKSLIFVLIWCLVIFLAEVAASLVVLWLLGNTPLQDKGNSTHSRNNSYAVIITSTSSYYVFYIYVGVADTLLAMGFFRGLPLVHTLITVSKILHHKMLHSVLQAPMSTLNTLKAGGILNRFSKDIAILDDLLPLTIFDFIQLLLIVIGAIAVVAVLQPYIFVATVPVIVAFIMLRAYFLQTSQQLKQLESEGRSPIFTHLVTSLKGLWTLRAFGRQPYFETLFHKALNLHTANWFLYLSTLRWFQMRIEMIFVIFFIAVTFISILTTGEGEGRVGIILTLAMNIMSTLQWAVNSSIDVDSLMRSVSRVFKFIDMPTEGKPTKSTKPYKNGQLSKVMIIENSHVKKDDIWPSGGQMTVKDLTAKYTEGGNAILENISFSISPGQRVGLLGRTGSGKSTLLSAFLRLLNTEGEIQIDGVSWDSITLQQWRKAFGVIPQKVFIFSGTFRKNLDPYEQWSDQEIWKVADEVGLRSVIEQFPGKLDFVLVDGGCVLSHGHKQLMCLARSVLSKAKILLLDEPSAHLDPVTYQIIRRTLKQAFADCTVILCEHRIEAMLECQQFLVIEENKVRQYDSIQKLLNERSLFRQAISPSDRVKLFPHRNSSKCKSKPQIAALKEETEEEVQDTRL
Protocol Description: Protocol 2: FRET membrane potential optical assay (VIPR), identification of correction compounds
Assay type: cell-based
Condition Label: F508del CFTR modulator activity; compounds of Table 1; read-out: EC30

{"Compound": "CCOc1cc(C)cc(-c2ccc(C(=O)NS(=O)(=O)c3cccnc3N)c(N3C[C@@H](C)CC3(C)C)n2)n1 [Compound 2256]", "EC30": "< 3000 nM"}
{"Compound": "CC1CN(c2ncccc2C(=O)NS(=O)(=O)c2cccc(Oc3cc(Cl)cc(C#N)c3)n2)C(C)(C)C1 (stereo not shown) [Compound 2177]", "EC30": "< 3000 nM"}
{"Compound": "C[C@@H]1CN(c2nc(-c3cccc4ccccc34)ccc2C(=O)NS(=O)(=O)c2ccc[nH]c2=O)C(C)(C)C1 [Compound 2007]", "EC30": "< 3000 nM"}
{"Compound": "Cc1ccc(-c2ccc(C(=O)NS(=O)(=O)c3cccc(N)n3)c(N3C[C@@H](C)CC3(C)C)n2)c(O)c1 [Compound 2043]", "EC30": "< 3000 nM"}
{"Compound": "CC1CN(c2ncccc2C(=O)NS(=O)(=O)c2cccc(Nc3ccc(Cl)cc3Cl)n2)C(C)(C)C1 (stereo not shown) [Compound 2217]", "EC30": "< 3000 nM"}
{"Compound": "CC1CC=C(c2cnc(N3CC(C)CC3(C)C)c(C(=O)NS(=O)(=O)c3cccc(N)n3)c2)CC1 (stereo not shown) [Compound 2361]", "EC30": "< 3000 nM"}
{"Compound": "CCOc1ccc(F)cc1-c1ccc(C(=O)NS(=O)(=O)c2cccnc2N)c(N2C[C@@H](C)CC2(C)C)n1 [Compound 2071]", "EC30": "< 3000 nM"}
{"Compound": "C[C@@H]1CN(c2nc(C(C)(C)C)c([C@@H](O)[C@H](O)C3CCCC3)cc2C(=O)NS(=O)(=O)c2cccc(N)n2)C(C)(C)C1 (single isomer, unassigned) [Compound 2069]", "EC30": "< 3000 nM"}
{"Compound": "CC(C)COc1cc(F)cc(-c2ccc(C(=O)NS(=O)(=O)c3cccc(N)n3)c(N3CCC[C@H]3C(=O)OC(C)(C)C)n2)c1 [Compound 2204]", "EC30": "< 3000 nM"}
{"Compound": "Cc1ccc(-c2ccc(C(=O)NS(=O)(=O)N3CC[C@H](N)C3)c(N3C[C@@H](C)CC3(C)C)n2)cc1F [Compound 2587]", "EC30": "3000 to 10000 nM"}
{"Compound": "CC1CN(c2ncccc2C(=O)NS(=O)(=O)c2cccc(Nc3c(F)cccc3F)n2)C(C)(C)C1 (stereo not shown) [Compound 2513]", "EC30": "3000 to 10000 nM"}
{"Compound": "C[C@@H]1CC[C@H](C)N1c1nc(-n2ccc(-c3ccccc3)n2)ccc1C(=O)NS(=O)(=O)C1CC1 [Compound 2676]", "EC30": "< 3000 nM"}
{"Compound": "CC1CCN(c2cccc(S(=O)(=O)NC(=O)c3cccnc3N3CC(C)CC3(C)C)n2)C1 (stereo not shown) [Compound 2116]", "EC30": "< 3000 nM"}
{"Compound": "CC1CN(c2ncccc2C(=O)NS(=O)(=O)c2cccc(Nc3cccc(C(F)(F)F)c3)n2)C(C)(C)C1 (stereo not shown) [Compound 2381]", "EC30": "< 3000 nM"}
{"Compound": "CCOc1ncc(-c2ccc(C(=O)NS(=O)(=O)c3cccnc3N)c(N3C[C@@H](C)CC3(C)C)n2)cc1C [Compound 2651]", "EC30": "< 3000 nM"}
{"Compound": "CCCCOCCCNc1cccc(S(=O)(=O)NC(=O)c2cccnc2N2CC(C)CC2(C)C)n1 (stereo not shown) [Compound 2529]", "EC30": "< 3000 nM"}
{"Compound": "CC1CN(c2ncccc2C(=O)NS(=O)(=O)c2cccc(N3CCN(Cc4ccccn4)CC3)n2)C(C)(C)C1 (stereo not shown) [Compound 2504]", "EC30": "3000 to 10000 nM"}
{"Compound": "COc1ccc(CNc2cccc(S(=O)(=O)NC(=O)c3cccnc3N3CC(C)CC3(C)C)n2)cc1 (stereo not shown) [Compound 2579]", "EC30": "< 3000 nM"}
{"Compound": "Cc1cc(-c2ccc(C(=O)NS(=O)(=O)c3cccc(N)n3)c(N3C[C@@H](C)CC3(C)C)n2)ccc1OC(F)F [Compound 2543]", "EC30": "< 3000 nM"}
{"Compound": "CCOc1cccc(S(=O)(=O)NC(=O)c2cccnc2N2CC(C)CC2(C)C)n1 (stereo not shown) [Compound 2617]", "EC30": "3000 to 10000 nM"}
{"Compound": "CC1CN(c2ncccc2C(=O)NS(=O)(=O)c2cccc(NCc3ccco3)n2)C(C)(C)C1 (stereo not shown) [Compound 2597]", "EC30": "3000 to 10000 nM"}
{"Compound": "CC1CN(c2ncccc2C(=O)NS(=O)(=O)c2cccc(NCC(F)F)n2)C(C)(C)C1 (stereo not shown) [Compound 2350]", "EC30": "3000 to 10000 nM"}
{"Compound": "CC1CN(c2ncc(-c3cccc(Cl)c3)cc2C(=O)NS(=O)(=O)c2cccc(N)n2)C(C)(C)C1 (stereo not shown) [Compound 2429]", "EC30": "< 3000 nM"}
{"Compound": "COc1ccc(Nc2cccc(S(=O)(=O)NC(=O)c3cccnc3N3CC(C)CC3(C)C)n2)cc1Cl (stereo not shown) [Compound 2571]", "EC30": "< 3000 nM"}
{"Compound": "Cc1cc(C(=O)c2ccccc2)cc(C)c1Oc1nc(-c2cc(F)cc(OCC(C)C)c2)ccc1C(=O)NS(=O)(=O)c1cccc(N)n1 [Compound 2669]", "EC30": "< 3000 nM"}
{"Compound": "CC1CN(c2ncccc2C(=O)NS(=O)(=O)c2cccc(Oc3ccc4c(c3)CCC4=O)n2)C(C)(C)C1 (stereo not shown) [Compound 2733]", "EC30": "3000 to 10000 nM"}
{"Compound": "CC(C)COc1cc(F)cc(-c2ncc(C(=O)NS(=O)(=O)c3cccc(N)n3)c(N3C[C@@H](C)CC3(C)C)n2)c1 [Compound 2121]", "EC30": "< 3000 nM"}
{"Compound": "CC1CN(c2ncccc2C(=O)NS(=O)(=O)c2cccc(N3CCC(C(F)(F)F)CC3)n2)C(C)(C)C1 (stereo not shown) [Compound 2641]", "EC30": "< 3000 nM"}
